Test system: SR leukemia
experimental protocol: NCI tumour cell line growth inhibition, 48 h
measurement name: TGI

Record excerpt, results attached:
• OC(c1ccco1)C(F)(F)c1nc2ccccc2o1 (centres undefined) = > 100 µM
• CC1OC(n2cc(F)c(=O)[nH]c2=O)C(O[Si](C)(C)C(C)(C)C)C1O[Si](C)(C)C(C)(C)C (centres undefined) = > 100 µM
• CCn1c(-c2nonc2N)nc2ccc(F)cc21 = > 25 µM

Okay, now this compound:
Req: Would you kindly share the measured TGI for `CNc1nc(NC2CCCC2)nc(Sc2ccc(OC)cc2)n1` ?
Resp: > 10 µM

---

The reader will find reported TGI values listed item by item below.
Test system: SK-MEL-2 melanoma
experimental protocol: NCI tumour cell line growth inhibition, 48 h

• C[C@H]1CCC/C=C/[C@@H]2C[C@H](N)C[C@H]2[C@H](O)/C=C/C(=O)O1 = > 100 µM
• NC(=S)N=Nc1c(O)cc(Nc2ccc(Cl)cc2Cl)c2ccccc12 = > 100 µM

Okay, now this molecule:
Req: Would you kindly share the measured TGI for `NS(=O)(=O)c1nnc(NSc2ccc([N+](=O)[O-])cc2)s1` ?
Resp: > 100 µM

---

Test system: HS 578T breast
experimental protocol: NCI tumour cell line growth inhibition, 48 h
The reader will find reported TGI values listed item by item below.

Record excerpt, results attached:
- Cc1sc(C)c(-c2ccc(CO)o2)c1-c1ccc(CO)o1: > 100 µM
- O=P(O)(O)C(O)(Cn1ccnc1)P(=O)(O)O: > 45.5 µM

Okay, now this compound:
Req: Would you kindly share the measured TGI for `COc1ccc(/C(C)=N/NC(=S)N(C)C)c(O)c1` ?
Resp: > 100 µM

---

Tested on: RPMI-8226 leukemia
experimental protocol: NCI tumour cell line growth inhibition, 48 h
measurement name: TGI

- OCC1OC(O[C@H]2CN3[C@H](O)[C@@H](O)[C@H](O)[C@H]3C2O)C(O)C(O)C1O (stereo partly drawn): > 100 µM
- COc1cc(-c2cn(C)c(=O)c(C)c2C)cc(OC)c1CN1CC[C@H](N2CCN(c3ccc(N[C@H]4CCC(=O)NC4=O)cc3F)CC2)C(F)(F)C1: > 100 µM
- CCCSc1cc(Cl)nc(N)n1: > 100 µM
- COc1ccc(CCCCl)c(C2=NCCc3ccccc32)c1: 21.7 µM
- COC(=O)c1c(O)ccc2[nH]c(C)c(C#N)c12: > 100 µM

Req: Would you kindly share the measured TGI for `CN(C)CCNC(=O)Nc1c(C#N)[n+]([O-])c2cc(Cl)c(Cl)cc2[n+]1[O-]` ?
Resp: > 100 µM

Req: Would you kindly share the measured TGI for `Cc1c(C(=O)NN)nnn1-c1ccnc2c(C(F)(F)F)cccc12` ?
Resp: > 100 µM

Req: Would you kindly share the measured TGI for `Cc1ncc(NC(=O)c2ccc(CN3CCN(C)CC3)c(C(F)(F)F)c2)cc1Nc1nccc(-c2cccnc2)n1` ?
Resp: 49.7 µM

Req: Would you kindly share the measured TGI for `CC(=O)[CH-]C(C)=O.CC(=O)[CH-]C(C)=O.N=CC=N.[Sn+2]` ?
Resp: 4.38 µM

Req: Would you kindly share the measured TGI for `O=C1c2ccccc2-c2c1c1ccccc1c(=O)n2CCNCCCNCCn1c2c(c3ccccc3c1=O)C(=O)c1ccccc1-2` ?
Resp: 0.259 µM

Req: Would you kindly share the measured TGI for `CCN(C(=O)N[C@H](C(=O)N[C@@H](C)C(=O)OC)C(C)C)c1ccccc1` ?
Resp: > 100 µM

Req: Would you kindly share the measured TGI for `CNc1nc(NC2CCCC2)nc(Sc2ccc(OC)cc2)n1` ?
Resp: > 10 µM

Req: Would you kindly share the measured TGI for `CCCC[C@@H]1CCN2C[C@@H](O)[C@@H](O)[C@H]2[C@@H]1O` ?
Resp: > 100 µM

---

Tested on: T-47D breast
experimental protocol: NCI tumour cell line growth inhibition, 48 h
measurement name: TGI

Record excerpt, results attached:
* CN(C)CCNC(=O)Nc1c(C#N)[n+]([O-])c2cc(Cl)c(Cl)cc2[n+]1[O-] | > 100 µM
* CC(C)(C)c1nc2c(o1)C(=Nc1ccc(F)cc1)c1ccccc1C2=O | > 100 µM
* Cc1ncc([N+](=O)[O-])n1CCNC(=O)CCCCn1ccnc1[N+](=O)[O-] | > 100 µM
* CC1(C)[C@@H]2C[C@H]1c1cnc(-c3ccccn3)cc1[C@H]2C(O)[C@@H]1c2cc(-c3ccccn3)ncc2[C@H]2C[C@@H]1C2(C)C (some centres not stated) | 53.1 µM
* CCOC(=O)C1=C(C)NC(=O)N([N+](=O)[O-])C1c1ccccc1C(F)(F)F (configuration not stated) | > 100 µM

Req: Would you kindly share the measured TGI for `CC(=O)[CH-]C(C)=O.CC(=O)[CH-]C(C)=O.N=CC=N.[Sn+2]` ?
Resp: 2.62 µM

Req: Would you kindly share the measured TGI for `CCCSc1cc(Cl)nc(N)n1` ?
Resp: > 100 µM

---

System: SN12C renal
experimental protocol: NCI tumour cell line growth inhibition, 48 h
measurement name: TGI

Record excerpt, results attached:
* CNc1ccc2c(c1)Cc1ccccc1-2 | > 100 µM
* C=C(COC(C)=O)CC(/C=C(\C)CCC=C(C)C)OC(C)=O (configuration not stated) | > 100 µM
* COc1ccc(C2=NC(C)(C)CO2)cc1 | > 100 µM
* CC/C=C\C/C=C\C1CC(=O)NCCCNCCCCN1 (configuration not stated) | > 100 µM
* CC1(C)CCc2cc3c(cc2O1)OCCC3=O | > 100 µM
* CC1=Nc2c(ccc3c2C(=O)c2ccccc2C3=O)NC(c2ccncc2)C1 (configuration not stated) | > 100 µM
* O=C(NN1C(=O)CSC1c1ccc(Cl)c(Cl)c1)c1ccncc1 (configuration not stated) | > 100 µM
* C=C1C(=O)O[C@H]2[C@H]1CC/C(COC(=O)c1cc3cc(OC)ccc3[nH]1)=C\CC[C@@]1(C)O[C@@H]21 | 3.52 µM
* COC(=O)C(Cc1ccccc1)N/C=C\C(=O)c1ccc(Cl)cc1 (configuration not stated) | 40.5 µM
* COC(=O)C1=C(C(=O)OC)C2(C)CCC(=O)C1O2 (configuration not stated) | > 10 µM

Req: Would you kindly share the measured TGI for `COn1cc(CO)c2ccccc21` ?
Resp: > 100 µM

Req: Would you kindly share the measured TGI for `Cc1c(-c2nc(N)nc(C3CC3)c2C)nc(N)nc1C1CC1` ?
Resp: > 100 µM

---

The reader will find reported TGI values listed item by item below.
Tested on: NCI-H226 lung
experimental protocol: NCI tumour cell line growth inhibition, 48 h

Record excerpt, results attached:
* O=C1c2ccccc2-c2c1c1ccccc1c(=O)n2CCNCCCNCCn1c2c(c3ccccc3c1=O)C(=O)c1ccccc1-2 | 1.66 µM
* CCC1C(=O)OCc2c1cc1n(c2=O)CCC12OCCO2 (stereo unspecified) | > 100 µM
* COC(=O)/C(=N\NC(=S)NN)C(C(=O)C(=O)Nc1ccccc1C(N)=O)c1nc2ccccc2[nH]c1=O (stereo unspecified) | > 100 µM
* CN(C)c1nc(=NCc2ccccn2)ss1 | > 10 µM
* COn1cc(CO)c2ccccc21 | 6.35 µM

Okay, now this compound:
Req: Would you kindly share the measured TGI for `CN(C)CCNC(=O)Nc1c(C#N)[n+]([O-])c2cc(Cl)c(Cl)cc2[n+]1[O-]` ?
Resp: > 100 µM

---

The reader will find reported TGI values listed item by item below.
Test system: SNB-75 CNS
experimental protocol: NCI tumour cell line growth inhibition, 48 h

Record excerpt, results attached:
- CC1(C)OC(CCO)CN1C(=O)OCc1ccccc1 (stereo not given): > 100 µM
- CCOC1NC(=O)c2ccccc21 (stereo not given): > 100 µM
- C=CC(=O)N1CCN(c2ncnc3c(F)c(-c4c(O)cccc4F)c(Cl)cc23)CC1: 22.6 µM
- CC1(C)CCc2cc3c(cc2O1)OCCC3=O: > 100 µM

Req: Would you kindly share the measured TGI for O=C(NN1C(=O)CSC1c1ccc(Cl)c(Cl)c1)c1ccncc1 (stereo not given) ?
Resp: > 100 µM

Req: Would you kindly share the measured TGI for `C=CCOc1c(Br)cc(Br)cc1Br` ?
Resp: > 100 µM

---

System: CAKI-1 renal
experimental protocol: NCI tumour cell line growth inhibition, 48 h
measurement name: TGI

• Clc1cccc(C2ON=C(c3ccccc3)N2C23CC4CC(CC(C4)C2)C3)c1Cl (stereo not drawn) = > 10 µM
• NNC(=O)c1cccc2c1Oc1ccccc1S2 = > 100 µM

Req: Would you kindly share the measured TGI for `Nc1n[nH]c2ccccc12` ?
Resp: > 100 µM

---

Tested on: SK-MEL-2 melanoma
experimental protocol: NCI tumour cell line growth inhibition, 48 h
The reader will find reported TGI values listed item by item below.

Record excerpt, results attached:
• C=C1CC=CC(C)(C)C1C/C=C(\C)C(O)CBr (centres undefined) = > 100 µM
• O=C(c1ccccc1)[C@H]1Nc2cnccc2C2c3ccccc3CC21 (some centres undefined) = 29.9 µM
• Clc1cccc(C2ON=C(c3ccccc3)N2C23CC4CC(CC(C4)C2)C3)c1Cl (centres undefined) = > 10 µM
• CCOC(=O)C(C)NC(=O)N(C)C12CC3CC(CC(C3)C1)C2 (centres undefined) = > 316 µM
• Brc1ccc2c(c1)-c1nc3c(cc1CC2)CCc1ccc(Br)cc1-3 = > 100 µM
• O=C(O)c1cc2ccccc2c(S(=O)(=O)O)c1O = > 100 µM

Req: Would you kindly share the measured TGI for `O=C(Nc1ccc(S(=O)(=O)N[C@@H](C(=O)O)c2ccccc2)cc1)c1ccc(F)cc1` ?
Resp: > 100 µM

Req: Would you kindly share the measured TGI for `Cc1sc(C)c(-c2ccc(CO)o2)c1-c1ccc(CO)o1` ?
Resp: > 100 µM

Req: Would you kindly share the measured TGI for COc1cc(OC)c(C2c3cc4c(cc3OC(N3CCOCC3)C2C)OCO4)c(OC)c1 (centres undefined) ?
Resp: > 100 µM
